System: SW-620 colon
Assay: NCI-60 one-dose screen, 48 h (100 = growth as untreated, 0 = no growth, -100 = all killed)
Conditions: 10 µM unless noted
Compounds without any hit were thinned out: in the full panel of roughly 83,000, 20% have a hit.
Each entry below carries its recorded growth.
# unit: % | format: bare number

INSERT INTO results (molecule, target_or_test_system, assay_result) VALUES
  ('CCN1CCCC(N2c3ccccc3Sc3ccccc32)C1 (centres undefined)', 'SW-620 colon', 105),
  ('Oc1cccnc1CN1CCCC1', 'SW-620 colon', 105),
  ('O=[N+]([O-])c1c(Cl)ncnc1Cl', 'SW-620 colon', 95.3),
  ('CC(=O)NC(CCc1ccc(Cl)c(Cl)c1)c1cccc(O)c(=O)c1 (centres undefined)', 'SW-620 colon', 23.8),
  ('C/C(=N\O)c1ccccn1', 'SW-620 colon', 94),
  ('O=C(NCc1ccccc1)c1cccc([N+](=O)[O-])c1', 'SW-620 colon', 99.2);

With those in mind, consider the next molecule.
The molecule listed as CC12CCC3c4ccc(O)cc4CCC3C1CCC2=O (centres undefined) has a reported growth of 110
